Test system: ND3 neuronal cell line
Assay: Measurement of nerve growth stimulation effect (neurite bearing assay, neurite length assay, number of cells)
Assay type: cell-based
Conditions: 10 μM; 6 hours; relative cell number, DMSO well = 1
Method: To evaluate the nerve growth stimulation effect, neurite bearing assay (proportion of neurite-bearing cells) and neurite length assay (neurite length) were analyzed with reference to the method of Topalli et al. (Brain Research 1030 (2004), pp. 116-124). An ND3 neuronal cell line (European Collection of Authenticated Cell Cultures) was seeded in a DMEM medium containing 10% fetal bovine serum (0.6×10^4 cells/1 mL) in a 24-well plate. […]
Values of viability at 10 µM strictly less than 90% map to rule met, and values of at least 90% map to rule not met.

• CC1=C(CCCCCCCCCCCCCCCCOC(C)C)C(C)(C)CCC1=O [Compound 31] = rule met
• CC1=C(CCCCCCCCCCCCO)C(C)(C)CCC1=O [Compound 1, reference compound] = rule not met
• CC1=C(CCCCCCCCCCCCCCOC(C)C)C(C)(C)CCC1=O [Compound 23] = rule not met
• CC1=C(CCCCCCCCCCCCOC(C)C)C(C)(C)CCC1=O [Compound 13] = rule met
• CC1=C(CCCCCCCCCCCCCCCOC2CCCCO2)C(C)(C)CCC1=O (stereo not shown) [Compound 6, reference compound] = rule met
• CC1=C(CCCCCCCCCCCCCCO)C(C)(C)CCC1=O [Compound 3, reference compound] = rule not met
• CC1=C(CCCCCCCCCCCCCCCOC(=O)N(C)C)C(C)(C)CCC1=O [Compound 36] = rule not met
• CCOCCCCCCCCCCCCCCCCC1=C(C)C(=O)CCC1(C)C [Compound 30] = rule met
• COCCCCCCCCCCCCCCCC1=C(C)C(=O)CCC1 [Compound 38] = rule met
• [2H]C([2H])([2H])OCCCCCCCCCCCCCCCC1=C(C)C(=O)CCC1(C)C [Compound 27] = rule met
• CC1=C(CCCCCCCCCCCCCCCOC(=O)c2ccccc2)C(C)(C)CCC1=O [Compound 53] = rule not met
• CC1=C(CCCCCCCCCCCCCCC#N)C(C)(C)CCC1=O [Compound 34] = rule not met
• CC1(C)CCC(=O)C=C1CCCCCCCCCCCCCCCO [Compound 8, reference compound] = rule not met
• COCCCCCCCCCCCCCCCC1=C(C)C(=O)C=CC1(C)C [Compound 41] = rule not met

Data credit: patent US20230295068A1
